Known pIC50 of a selection of compounds
# target: KRAS G12D (Homo sapiens, UniProt P01116+P62937, G12D)
# Sequence (P01116 1-169 isoform P01116-2 G12D limits assumed): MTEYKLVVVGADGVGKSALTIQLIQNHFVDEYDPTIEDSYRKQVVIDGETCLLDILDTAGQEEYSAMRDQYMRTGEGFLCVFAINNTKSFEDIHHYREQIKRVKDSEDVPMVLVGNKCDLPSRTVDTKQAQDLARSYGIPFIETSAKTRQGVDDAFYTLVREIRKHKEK
# Sequence (P62937 whole entry): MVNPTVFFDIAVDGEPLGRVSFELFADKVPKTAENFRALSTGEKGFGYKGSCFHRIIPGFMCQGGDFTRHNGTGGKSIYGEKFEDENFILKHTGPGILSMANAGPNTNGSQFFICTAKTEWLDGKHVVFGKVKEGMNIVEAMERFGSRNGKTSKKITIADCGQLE
# procedure-text: Disruption of BRAF RBD interaction with Ras (FRET / MOA assay, with Cyclophilin A)
# Assay type: biochemical
# condition-set: KRAS G12D FRET data, IC50
pIC50: −log10 of the molar value.

{"compound": "CCn1c(-c2cnccc2COC)c2c3cc(ccc31)-c1cc(O)cc(c1)C[C@H](NC(=O)[C@H](C(C)C)N(C)C(=O)[C@H]1CCN(CCO)C1)C(=O)N1CCC[C@H](N1)C(=O)OCC(C)(C)C2", "pIC50": "6.00 to 7.00"}

Query :: Tell me measured pIC50 for `CCn1c(-c2cccnc2[C@H](C)OC)c2c3cc(ccc31)-c1cc(O)cc(c1)C[C@H](NC(=O)[C@H](C(C)C)N(C)C(=O)C1CCNCC1)C(=O)N1CCC[C@H](N1)C(=O)OCC(C)(C)C2` please.
Result :: 6.00 to 7.00

Query :: Please supply the value of reported pIC50 for the item `C=CC(=O)N1CC[C@H](C(=O)N(C)[C@H](C(=O)N[C@H]2Cc3cc(OC(=O)NCC(=O)O)cc(c3)-c3ccc4c(c3)c(c(-c3ccccc3CCOC)n4CC)CC(C)(C)COC(=O)[C@@H]3CCCN(N3)C2=O)C(C)C)C1`
Result :: < 5.00

Query :: Look up pIC50 of CCn1c(-c2cccnc2[C@H](C)OC)c2c3cc(ccc31)-c1cc(O)cc(c1)C[C@H](NC(=O)[C@H](C(C)C)N(C)C(=O)C1CCN3CCOCC13)C(=O)N1CCC[C@H](N1)C(=O)OCC(C)(C)C2 (some centres unmarked) and report it.
Result :: 6.00 to 7.00

Query :: Dear colleague, please send me the reported pIC50 for `CCn1c(-c2ccccc2CCOC)c2c3cc(ccc31)-c1cc(O)cc(c1)C[C@H](NC(=O)[C@H](C(C)C)N(C)C(=O)CCN)C(=O)N1CCC[C@H](N1)C(=O)OCC(C)(C)C2` when you can.
Result :: 5.00 to 6.00

====

# target: NRAS Q61K (Homo sapiens, UniProt P01111+P62937, Q61K)
# Sequence (P01111 whole entry Q61K): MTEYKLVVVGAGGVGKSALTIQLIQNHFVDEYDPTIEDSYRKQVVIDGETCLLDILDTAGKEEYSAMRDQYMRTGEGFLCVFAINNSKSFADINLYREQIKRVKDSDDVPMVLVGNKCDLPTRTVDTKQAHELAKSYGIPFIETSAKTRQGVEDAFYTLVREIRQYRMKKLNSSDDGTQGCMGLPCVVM
# Sequence (P62937 whole entry): as the sequence (P62937 whole entry) above
# procedure-text: Ras-Raf disruption / FRET / MOA assay (BRAF RBD)
# Format: biochemical
test-readout: IC50

Worked examples, 3 compounds total:
{"compound": "CCn1c(-c2cccnc2[C@H](C)OC)c2c3cc(ccc31)-c1cc(O)cc(c1)C[C@H](NC(=O)[C@H](C(C)C)N(C)C(=O)C13CC(CN1C(=O)[C@@H]1CN1)C3)C(=O)N1CCC[C@H](N1)C(=O)OCC(C)(C)C2 [Example 163]", "recorded-value": "100 to 1000 nM"}
{"compound": "CC[C@H]1N[C@H]1C(=O)N(C)CC(=O)N(C)[C@H](C(=O)N[C@H]1Cc2cc(O)cc(c2)-c2ccc3c(c2)c(c(-c2cccnc2[C@H](C)OC)n3CC)CC(C)(C)COC(=O)[C@@H]2CCCN(N2)C1=O)C(C)C [Example 262]", "recorded-value": "100 to 1000 nM"}
{"compound": "CCn1c(-c2cccnc2[C@H](C)OC)c2c3cc(ccc31)-c1cc(O)cc(c1)C[C@H](NC(=O)[C@H](C1CCCC1)N(C)C(=O)CN(C)C(=O)[C@H]1[C@@H](C3CC3)N1CCCOC)C(=O)N1CCC[C@H](N1)C(=O)OCC(C)(C)C2 (stereo partly drawn) [Example 317]", "recorded-value": "100 to 1000 nM"}

The record that follows has no IC50 shown yet.
Query :: Report IC50, nothing else, for this compound: CCn1c(-c2cccnc2[C@H](C)OC)c2c3cc(ccc31)-c1cc(O)cc(c1)C[C@H](NC(=O)[C@H](C(C)C)N(C)C(=O)[C@]13C[C@H]1CCN3C(=O)[C@@H]1CN1)C(=O)N1CCC[C@H](N1)C(=O)OCC(C)(C)C2 [Example 166]
Result :: 1000 to 10000 nM

====

# target: KRAS G12D (Homo sapiens, UniProt P01116+P62937, G12D)
# procedure-text: Ras-Raf disruption / FRET / MOA assay (BRAF RBD)
# Type: biochemical
# condition-set: Ras-Raf disruption, with Cyclophilin A; read-out: KRAS G12D FRET data IC50
test-readout: IC50

{"compound": "CCn1c(-c2cccnc2[C@H](C)OC)c2c3cc(ccc31)-c1cc(O)cc(c1)C[C@H](NC(=O)[C@H](C(C)C)N(C)C(=O)N1CCCN(C(=O)[C@@H]3CN3)CC1)C(=O)N1CCC[C@H](N1)C(=O)OCC(C)(C)C2 [Example 173]", "IC50": "10 to 100 nM"}

Query :: Quote KRAS G12D (Homo sapiens, UniProt P01116+P62937, G12D) IC50 for entry CCn1c(-c2cccnc2[C@H](C)OC)c2c3cc(ccc31)-c1cc(O)cc(c1)C[C@H](NC(=O)[C@H](C(C)C)N(C)C(=O)[C@H]1CN1)C(=O)N1CCC[C@H](N1)C(=O)OCC(C)(C)C2 [Example 112] .
Result :: 100 to 1000 nM

Query :: For KRAS G12D (Homo sapiens, UniProt P01116+P62937, G12D), give the measured IC50 of the entry CCn1c(-c2cccnc2[C@H](C)OC)c2c3cc(ccc31)-c1cccc(c1)C[C@H](NC(=O)[C@H](C(C)C)N(C)C(=O)[C@H]1C[C@H](N=C=Nc3c(C)cccc3C)C1)C(=O)N1CCC[C@H](N1)C(=O)OCC(C)(C)C2 [Example 126]
Result :: 1000 to 10000 nM

Query :: Give IC50 only, for CCn1c(-c2cnccc2COC)c2c3cc(ccc31)-c1cccc(c1)C[C@H](NC(=O)[C@H](C(C)C)N(C)C(=O)C1CCC(N=C=Nc3ccc(OC)cc3)C1)C(=O)N1CCC[C@H](N1)C(=O)OCC(C)(C)C2 (stereo partly shown) [71 A and B] , using KRAS G12D (Homo sapiens, UniProt P01116+P62937, G12D) data.
Result :: > 10000 nM

====

# target: NRAS WT (Homo sapiens, UniProt P01111+P62937)
# Sequence (P01111 whole entry): as the sequence (P01111 whole entry Q61K) above, with K61Q counted along it
# Sequence (P62937 whole entry): as the sequence (P62937 whole entry) above
# procedure-text: Ras-Raf disruption / FRET / MOA assay (BRAF RBD)
# Assay type: biochemical
test-readout: IC50

Examples from the recorded data:
{"molecule": "CCn1c(-c2cccnc2[C@H](C)OC)c2c3cc(ccc31)-c1cc(O)cc(c1)C[C@H](NC(=O)[C@H](C1CCCC1)N(C)C(=O)CN(C)C(=O)[C@@H]1N[C@@H]1C1(C#N)CC1)C(=O)N1CCC[C@H](N1)C(=O)OCC(C)(C)C2 (single isomer, unassigned)", "target": "NRAS WT (Homo sapiens, UniProt P01111+P62937)", "IC50": "10 to 100 nM"}
{"molecule": "CCn1c(-c2cccnc2[C@H](C)OC)c2c3cc(ccc31)-c1cc(O)cc(c1)C[C@H](NC(=O)[C@H](C(C)C)N(C)C(=O)CN(C)C(=O)[C@@H]1N[C@@H]1C(F)(F)F)C(=O)N1CCC[C@H](N1)C(=O)OCC(C)(C)C2", "target": "NRAS WT (Homo sapiens, UniProt P01111+P62937)", "IC50": "< 10 nM"}
{"molecule": "CCn1c(-c2cccnc2[C@H](C)OC)c2c3cc(ccc31)-c1cc(O)cc(c1)C[C@H](NC(=O)[C@H](C(C)C)N(C)C(=O)CN(C)C(=O)[C@H]1N[C@H]1C1CCC1)C(=O)N1CCC[C@H](N1)C(=O)OCC(C)(C)C2", "target": "NRAS WT (Homo sapiens, UniProt P01111+P62937)", "IC50": "10 to 100 nM"}
{"molecule": "CCn1c(-c2cccnc2[C@H](C)OC)c2c3cc(ccc31)-c1cc(O)cc(c1)C[C@H](NC(=O)[C@H](C1CCCC1)N(C)C(=O)CN(C)C(=O)[C@@H]1N[C@@H]1C1(OC)CC1)C(=O)N1CCC[C@H](N1)C(=O)OCC(C)(C)C2 (single isomer, unassigned)", "target": "NRAS WT (Homo sapiens, UniProt P01111+P62937)", "IC50": "10 to 100 nM"}
{"molecule": "CCn1c(-c2cccnc2[C@H](C)OC)c2c3cc(ccc31)-c1cc(O)cc(c1)C[C@H](NC(=O)[C@H](C(C)C)N(C)C(=O)CN(C)C(=O)[C@H]1CN1CC1COC1)C(=O)N1CCC[C@H](N1)C(=O)OCC(C)(C)C2 (stereo partly shown)", "target": "NRAS WT (Homo sapiens, UniProt P01111+P62937)", "IC50": "100 to 1000 nM"}
{"molecule": "CCn1c(-c2cccnc2[C@H](C)OC)c2c3cc(ccc31)-c1cc(O)cc(c1)C[C@H](NC(=O)[C@H](C1CCCC1)N(C)C(=O)CN(C)C(=O)[C@H]1[C@@H](C3CC3)N1CCCOC)C(=O)N1CCC[C@H](N1)C(=O)OCC(C)(C)C2 (stereo partly shown)", "target": "NRAS WT (Homo sapiens, UniProt P01111+P62937)", "IC50": "10 to 100 nM"}
{"molecule": "CCn1c(-c2cccnc2[C@H](C)OC)c2c3cc(ccc31)-c1cc(O)cc(c1)C[C@H](NC(=O)[C@H](C(C)C)N(C)C(=O)CN(C)C(=O)[C@H]1N[C@@H]1C1COC1)C(=O)N1CCC[C@H](N1)C(=O)OCC(C)(C)C2", "target": "NRAS WT (Homo sapiens, UniProt P01111+P62937)", "IC50": "10 to 100 nM"}
{"molecule": "CCn1c(-c2cccnc2[C@H](C)OC)c2c3cc(ccc31)-c1cc(O)cc(c1)C[C@H](NC(=O)[C@H](C(C)C)N1CC[C@H](NC(=O)[C@H]3CN3)C1=O)C(=O)N1CCC[C@H](N1)C(=O)OCC(C)(C)C2", "target": "NRAS WT (Homo sapiens, UniProt P01111+P62937)", "IC50": "10 to 100 nM"}

Query :: Look up and report measured IC50 (NRAS WT (Homo sapiens, UniProt P01111+P62937)) for the following molecule: CCn1c(-c2cccnc2[C@H](C)OC)c2c3cc(ccc31)-c1cc(O)cc(c1)C[C@H](NC(=O)[C@H](C(C)C)N(C)C(=O)CN(C)C(=O)[C@H]1CN1CCCN1CCCC1=O)C(=O)N1CCC[C@H](N1)C(=O)OCC(C)(C)C2 (stereo partly shown)
Result :: 10 to 100 nM

Query :: Quote IC50 with test system NRAS WT (Homo sapiens, UniProt P01111+P62937) for CCn1c(-c2cccnc2[C@H](C)OC)c2c3cc(ccc31)-c1cc(O)cc(c1)C[C@H](NC(=O)[C@H](C(C)C)N(C)C(=O)CN(C)C(=O)[C@@H]1CN1CCCN1CCCC1=O)C(=O)N1CCC[C@H](N1)C(=O)OCC(C)(C)C2 (stereo partly shown)
Result :: 10 to 100 nM
